- Assay System: Recombinant SARS-CoV-2 spike RBD protein (SARS-CoV-2, UniProt P0DTC2)
- Experimental Details: SPR
Where no end group is shown, it is not given here. The star is where a group is joined. Biotin = O=C1N[C@H]2[C@H](CS[C@H]2CCCCC(=O)*)N1
Assay Endpoint: pKd
// pKd: -log10(molar conc.)

Q) Indicate its recorded pKd; the binder in question is Biotin-SCFDFLNWASCDGGGS (cysteine pairing not given here) [biotinylated peptide 1 (second synthesis)]
A) 5.24
